- METHOD_DESCRIPTION: activity coefficient (dimensionless); of the first substance listed, at infinite dilution; xn = mol fraction of the nth substance listed
- EXPERIMENTAL_CONTEXT: 318.15 K; 101.33 kPa; Liquid; Chromatography; x1 = 0
OUTCOME_MEASURE: activity coefficient

COMPOUND: C1COCCO1 [1,4-dioxane] + CC[N+](C)(CC)CCOC.O=S(=O)([N-]S(=O)(=O)C(F)(F)F)C(F)(F)F
VALUE: 0.66

COMPOUND: c1ccsc1 [thiophene] + CC[N+](C)(CC)CCOC.O=S(=O)([N-]S(=O)(=O)C(F)(F)F)C(F)(F)F
VALUE: 0.906

COMPOUND: CC#N [acetonitrile] + CC[N+](C)(CC)CCOC.O=S(=O)([N-]S(=O)(=O)C(F)(F)F)C(F)(F)F
VALUE: 0.488

COMPOUND: C1=CCCCC1 [cyclohexene] + CC[N+](C)(CC)CCOC.O=S(=O)([N-]S(=O)(=O)C(F)(F)F)C(F)(F)F
VALUE: 5.83

COMPOUND: Cc1ccccc1 [toluene] + CC[N+](C)(CC)CCOC.O=S(=O)([N-]S(=O)(=O)C(F)(F)F)C(F)(F)F
VALUE: 1.47

COMPOUND: O [water] + CC[N+](C)(CC)CCOC.O=S(=O)([N-]S(=O)(=O)C(F)(F)F)C(F)(F)F
VALUE: 1.9

COMPOUND: CCO [ethanol] + CC[N+](C)(CC)CCOC.O=S(=O)([N-]S(=O)(=O)C(F)(F)F)C(F)(F)F
VALUE: 1.77

COMPOUND: C#CCCCCCC [1-octyne] + CC[N+](C)(CC)CCOC.O=S(=O)([N-]S(=O)(=O)C(F)(F)F)C(F)(F)F
VALUE: 6.47

COMPOUND: CCCCCCCCCC [decane] + CC[N+](C)(CC)CCOC.O=S(=O)([N-]S(=O)(=O)C(F)(F)F)C(F)(F)F
VALUE: 82

COMPOUND: C#CCCCCC [1-heptyne] + CC[N+](C)(CC)CCOC.O=S(=O)([N-]S(=O)(=O)C(F)(F)F)C(F)(F)F
VALUE: 4.47

COMPOUND: CC(C)=O [acetone] + CC[N+](C)(CC)CCOC.O=S(=O)([N-]S(=O)(=O)C(F)(F)F)C(F)(F)F
VALUE: 0.484

COMPOUND: CC(C)O [propan-2-ol] + CC[N+](C)(CC)CCOC.O=S(=O)([N-]S(=O)(=O)C(F)(F)F)C(F)(F)F
VALUE: 2.04

COMPOUND: CCCCO [butan-1-ol] + CC[N+](C)(CC)CCOC.O=S(=O)([N-]S(=O)(=O)C(F)(F)F)C(F)(F)F
VALUE: 2.96

COMPOUND: C1CCOC1 [tetrahydrofuran] + CC[N+](C)(CC)CCOC.O=S(=O)([N-]S(=O)(=O)C(F)(F)F)C(F)(F)F
VALUE: 0.817

COMPOUND: Cc1ccccc1C [1,2-dimethylbenzene] + CC[N+](C)(CC)CCOC.O=S(=O)([N-]S(=O)(=O)C(F)(F)F)C(F)(F)F
VALUE: 1.93

COMPOUND: CCC[N+](=O)[O-] [1-nitropropane] + CC[N+](C)(CC)CCOC.O=S(=O)([N-]S(=O)(=O)C(F)(F)F)C(F)(F)F
VALUE: 0.78

COMPOUND: Cc1cccc(C)c1 [1,3-dimethylbenzene] + CC[N+](C)(CC)CCOC.O=S(=O)([N-]S(=O)(=O)C(F)(F)F)C(F)(F)F
VALUE: 2.12

COMPOUND: Cc1ccc(C)cc1 [1,4-dimethylbenzene] + CC[N+](C)(CC)CCOC.O=S(=O)([N-]S(=O)(=O)C(F)(F)F)C(F)(F)F
VALUE: 2.12

COMPOUND: C1CCCCCC1 [cycloheptane] + CC[N+](C)(CC)CCOC.O=S(=O)([N-]S(=O)(=O)C(F)(F)F)C(F)(F)F
VALUE: 14.9

COMPOUND: CC(C)CC(C)(C)C [2,2,4-trimethylpentane] + CC[N+](C)(CC)CCOC.O=S(=O)([N-]S(=O)(=O)C(F)(F)F)C(F)(F)F
VALUE: 25.7

COMPOUND: CCCOCCC [dipropyl ether] + CC[N+](C)(CC)CCOC.O=S(=O)([N-]S(=O)(=O)C(F)(F)F)C(F)(F)F
VALUE: 6.84

COMPOUND: CCC(=O)CC [pentan-3-one] + CC[N+](C)(CC)CCOC.O=S(=O)([N-]S(=O)(=O)C(F)(F)F)C(F)(F)F
VALUE: 0.852

COMPOUND: CCC(C)(C)C [2,2-dimethylbutane] + CC[N+](C)(CC)CCOC.O=S(=O)([N-]S(=O)(=O)C(F)(F)F)C(F)(F)F
VALUE: 15.1

COMPOUND: CCOCC [diethyl ether] + CC[N+](C)(CC)CCOC.O=S(=O)([N-]S(=O)(=O)C(F)(F)F)C(F)(F)F
VALUE: 2.62

COMPOUND: CCCCC(C)=O [2-hexanone] + CC[N+](C)(CC)CCOC.O=S(=O)([N-]S(=O)(=O)C(F)(F)F)C(F)(F)F
VALUE: 1.14

COMPOUND: C=CCCCCCCCC [1-decene] + CC[N+](C)(CC)CCOC.O=S(=O)([N-]S(=O)(=O)C(F)(F)F)C(F)(F)F
VALUE: 40.4

COMPOUND: CCC(C)(C)OC [2-methoxy-2-methylbutane] + CC[N+](C)(CC)CCOC.O=S(=O)([N-]S(=O)(=O)C(F)(F)F)C(F)(F)F
VALUE: 3.87

COMPOUND: C1CCCC1 [cyclopentane] + CC[N+](C)(CC)CCOC.O=S(=O)([N-]S(=O)(=O)C(F)(F)F)C(F)(F)F
VALUE: 7.28
